Provenance of the data: a melting point compilation (Tetko et al.; mined from patent text by program, amines drawn as free bases though some values may be those of a salt)

MEASURED_QUANTITY: melting point

{"columns": ["MOLECULE", "VAL"],
 "data": [
  ["CC(=O)Nc1cc(N(C)C)c([N+](=O)[O-])cc1C(=O)O", "230 to 255 °C"],
  ["CN(C)c1ccc(C2(c3ccccc3)Oc3ccccc3-c3[nH]c4ccccc4c32)cc1 (stereo not drawn)", "229 °C"],
  ["CN(C)C(=O)C=C(N(C(N)=O)c1cc(F)c(C#N)cc1F)C(F)(F)F", "198 °C"],
  ["Cc1nnc2n1-c1sc3c(c1C(c1ccccc1Cl)=NC2)CCN(C(=S)NCc1ccccc1C(F)(F)F)C3", "178 to 184 °C"],
  ["COC[C@@H]1Cc2ccccc2N1C(=O)OC(C)(C)C", "173 to 175 °C"],
  ["CC(C)(CO)[C@@H](O)C#N", "110 °C"],
  ["C=CCNc1nc(NCC(F)(F)F)nc2ccc([N+](=O)[O-])cc12", "221 to 222 °C"],
  ["CNc1ccc(N2CCOC2=O)cc1[N+](=O)[O-]", "192 °C"],
  ["COc1cc2cccc3c2c(n1)-c1ccccc1C3=O", "190 to 192 °C"],
  ["COc1ccc2c(n1)C1(CO2)C(=O)Nc2cccc(Br)c21 (stereo not drawn)", "265 to 268 °C"],
  ["Cc1ccc2c3c(ccc2n1)OCC(CNCC1CCc2[nH]c4ccc(Cl)cc4c2C1)O3 (stereo not drawn)", "104 to 105 °C"],
  ["COc1ccccc1Oc1c(Cl)nc(-c2ccncc2)nc1NS(=O)(=O)c1ccc(C)cn1", "177 to 179 °C"],
  ["CC(C)c1cccc(-c2ccc(C(=O)NO)nc2)c1", "130 to 135 °C"],
  ["C[C@@H]1CN(C(=O)c2cc3c(C(=O)OC(C)(C)C)ncn3c3ccccc23)C[C@H](C)N1", "233 to 234 °C"],
  ["COc1ccc(C2=CC=CCC2(OC(C)C)C(=O)O)c(OC)c1 (stereo not drawn)", "121 to 122 °C"],
  ["CNC(=O)Oc1ccc2c(c1)c1c(n2C)C2(CC1)CCN(Cc1ccccc1)CC2", "189 to 190 °C"],
  ["CCCC1CCCNC1=O (stereo not drawn)", "75 to 76 °C"],
  ["CCN1C(=S)NNC1c1ccccc1NC(C)=O (stereo not drawn)", "193 to 194 °C"],
  ["CC1Oc2c(F)cc(CN3CC=C(c4ccc(Cl)cc4)CC3)cc2NC1=O (stereo not drawn)", "214 to 233 °C"],
  ["Cc1ccc(C(=S)NN)cc1", "140 to 142 °C"],
  ["COc1ccc(-c2ncn(Cc3ccccc3)c2-c2ccc(OC)cc2)cc1", "165 to 167 °C"],
  ["CC(C)(CNS(=O)(=O)C(F)(F)F)Cn1c(=O)c2cccc3ncc(c1=O)n32", "196 to 198 °C"],
  ["O=C1CCC(CCO)(c2ccc(F)c(F)c2)CN1Cc1ccccc1 (stereo not drawn)", "153 to 154 °C"],
  ["CCOP(=O)(CCN1CCC(N(NCCN2CCCC2)S(=O)(=O)c2ccc(Nc3nccc(Nc4ccc(F)cc4)n3)cc2)CC1)OCC", "85 °C"],
  ["O=C1c2c(Cl)cccc2-n2cnc(-c3nnco3)c2[C@@H]2CCCN12", "229 to 230 °C"],
  ["CCOC(=O)c1csc(N2CCOC2=O)n1", "157 to 159 °C"],
  ["O=C(O)[C@H](Cc1ccc(O)cc1)NS(=O)(=O)c1ccc(N2CCC(c3ccccc3)CC2)cc1", "108 to 110 °C"],
  ["CCN1CCN(Cc2ccc(-c3ccc4c(Nc5cc(OC)c(Cl)cc5Cl)c(C#N)cnc4c3)o2)CC1", "157 to 160 °C"],
  ["COc1cccc(S(N)(=O)=O)c1C", "193 °C"],
  ["CC(C)(C)OC(=O)NCCNC(=O)c1cccc(Cl)n1", "114 to 115 °C"],
  ["CCN(CC)CCCN(Cc1ccc(COc2cccc3c2CN(C2CCC(=O)NC2=O)C3=O)cc1)C(=O)OC(C)(C)C (stereo not drawn)", "140 to 142 °C"],
  ["CCOC(=O)CCC1CCC2C(C=CC3=CCCc4c3n2c2ccncc42)C1 (stereo not drawn)", "112 °C"],
  ["O=C(c1ccccc1)N1Cc2c(-c3noc(C4CC4)n3)ncn2-c2cccc(F)c21", "234 to 236 °C"]
]}

====

Each entry below lists one item and its recorded melting point value.

{"columns": ["COMPOUND", "melting point"],
 "data": [
  ["COc1cnn(-c2cccc(COc3ccccc3)c2)c(=O)c1OC", "82 to 85 °C"],
  ["O=C(O)/C=C/C(=O)c1ccoc1", "104 to 106 °C"],
  ["Cc1ccc2c(=O)c3cc(F)ccc3sc2c1", "166 to 170 °C"],
  ["CCCCCCC[C@H]1CC[C@H](COc2ccc(O)cc2)CC1", "107 to 108 °C"],
  ["CCOC(=O)N[C@@H](C(=O)O)c1ccccc1", "143 to 150 °C"],
  ["CCOC(=O)c1c(O)c2cc(Cl)cnc2n(Cc2ccccc2)c1=O", "141 to 142 °C"],
  ["CC(C)(O)COc1c(-c2ccc(S(C)(=O)=O)cc2)cnn(-c2ccc(F)cc2)c1=O", "152 to 154 °C"],
  ["COC(=O)c1ccc(-c2coc3ccc(-c4nnc(C)o4)cc23)cc1", "208 to 209 °C"],
  ["COc1ccc(N)c(C(=O)O)c1OC", "71 to 72 °C"],
  ["CCOC(=O)C1CCc2c(sc3nc(CCl)c(Cl)c(-c4ccc(OC)cc4)c23)C1 (centres undefined)", "113 to 114 °C"],
  ["CC(NC(=O)C=Cc1ccc(C(C)(C)C)cc1)c1ccc(NS(C)(=O)=O)c(F)c1 (centres undefined)", "154 to 156 °C"],
  ["CC1CCC(C(C)C)C(OCC(=O)OC2CC(=O)C(CCCCCCC(=O)O)=C2C=Cc2ccccc2)C1 (centres undefined)", "103 to 104 °C"],
  ["Cc1nc(NCCc2ccccc2)c2c(n1)N(c1ccccc1)C(=O)C2", "81 to 84 °C"],
  ["COc1nc2cc(Cl)c(Cl)c(NS(C)(=O)=O)c2nc1OC", "225 to 227 °C"],
  ["O=C(O)CCc1cnoc1-c1ccc(Cl)c(Cl)c1", "171 to 172 °C"],
  ["CCc1c(C)sc2[nH]c(=O)c(=O)[nH]c12", "> 300 °C"],
  ["C#CCn1c(-c2ccccc2)nc(CC)c(O)c1=O", "152 to 154 °C"],
  ["COCCOc1ccc(CCCNS(C)(=O)=O)c(Oc2ncc(C(F)(F)F)cc2Cl)c1", "89 to 90 °C"],
  ["Nc1c([N+](=O)[O-])cc(Br)c2c1CN(Cc1ccccc1)CC2", "150 to 152 °C"],
  ["Nc1cc(C=O)nc(Cc2ccc(F)cc2)c1F", "130 to 131 °C"],
  ["O=C1Nc2ccc(Cl)cc2C1(O)c1ccccc1OC(F)(F)F (centres undefined)", "214 °C"],
  ["CS(=O)(=O)NC1CCC(NC(=O)c2ccc(F)cc2)CC1 (centres undefined)", "269 to 270 °C"],
  ["CC(CCNc1cccc(-c2ccnc3c(C(=O)c4cccs4)cnn23)c1)CC(C)(C)C (centres undefined)", "81 to 85 °C"],
  ["O=c1[nH]nc2c(Br)cccn12", "297 to 299 °C"],
  ["CCCOC(=O)C(Cc1ccccc1)(Cn1cncn1)c1ccccc1OC (centres undefined)", "129 to 130 °C"],
  ["CC(C)(CC12CC3CC(CC(C3)C1)C2)NC=O", "87 to 88 °C"],
  ["CCC1(C)Cc2cc(OC)c(Cl)c(Cl)c2C1=O (centres undefined)", "121 °C"],
  ["CC(C)n1c(C(=O)Cl)c(-c2ccc(F)cc2)c2ccccc2c1=O", "132 to 134 °C"],
  ["COc1ccc(Cc2nccc3cc(O)ccc23)cc1OC", "190 to 192 °C"],
  ["CC(=O)CCCCCCC(CC(C)C(O)C(N)CO)c1cccs1 (centres undefined)", "96 to 99 °C"],
  ["COc1cc(NCCCO)c([N+](=O)[O-])cc1O", "144 °C"],
  ["Cn1c(CCCOc2ccc(CC3SC(=O)NC3=O)cc2)nc2cccnc21 (centres undefined)", "185 to 186 °C"],
  ["O=C1NCc2c(-c3ccccc3)cccc2N1CCN1CCOCC1", "228 to 229 °C"],
  ["Cc1nc2ccccc2c(=O)n1-c1ccccc1C#N", "165 to 166 °C"]
]}
